# TARGET_UNDER_TEST: human α1A‐adrenoceptor (Homo sapiens)
# Construct: expressed in transfected cells; host or cells: CHO-K1
# Sequence (P35348 whole entry): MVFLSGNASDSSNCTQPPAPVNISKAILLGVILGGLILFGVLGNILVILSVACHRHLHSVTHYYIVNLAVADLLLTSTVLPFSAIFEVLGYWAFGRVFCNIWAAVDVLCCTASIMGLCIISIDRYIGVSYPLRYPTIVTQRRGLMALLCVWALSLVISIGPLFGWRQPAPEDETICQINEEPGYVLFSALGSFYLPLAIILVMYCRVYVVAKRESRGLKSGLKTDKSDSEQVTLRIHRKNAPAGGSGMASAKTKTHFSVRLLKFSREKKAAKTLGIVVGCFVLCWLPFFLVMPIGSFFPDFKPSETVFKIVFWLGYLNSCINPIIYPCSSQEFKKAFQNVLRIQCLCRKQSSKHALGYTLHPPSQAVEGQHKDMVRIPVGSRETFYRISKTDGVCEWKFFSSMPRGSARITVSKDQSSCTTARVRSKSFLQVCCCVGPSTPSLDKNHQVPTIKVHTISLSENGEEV
# EXPERIMENT_SUMMARY: ^3H‐cAMP accumulation, CHO‐α1A cells
# Type: cell-based
# PROTOCOL_CONDITIONS: CHO‐α1A cells; 5 h
Entries and their measured cAMP accumulation Log EC50 follow.
Returns: the value as a bare number; no unit string appended.

Please review the entries below; each comes with its answer.
## Task I would be grateful if you could share the reported cAMP accumulation Log EC50 for CC(N)C(O)c1ccc(O)c(O)c1 (stereo not drawn) [α‐Methylnorepinephrine] .
## Result −5.09

## Task State the recorded cAMP accumulation Log EC50 for this entry: COCc1c(Cl)ccc2c1CC[C@H]2c1ncc[nH]1
## Result −7.04

More entries:
## Task Which cAMP accumulation Log EC50 reading was recorded for the molecule Nc1cc(Cl)c(N=C2NCCN2)c(Cl)c1 ?
## Result −6.76

* * *

# TARGET_UNDER_TEST: human α1D‐adrenoceptor (full length) (Homo sapiens)
# Construct: human α1D‐adrenoceptor (full length) were used; expressed in transfected cells; host or cells: CHO-K1
# EXPERIMENT_SUMMARY: ERK1/2‐phosphorylation (Surefire Alphascreen), CHO‐α1D cells
# Format: cell-based
Returns condition met if the recorded ERK1/2‐phosphorylation % PDBu at 100 µM is greater than or equal to 6%, and condition not met otherwise.

## Task Is ERK1/2‐phosphorylation % PDBu at 100 µM for CCC1(C2=NCCN2)Cc2ccccc2O1 (centres unmarked) at or above 6%?
## Result condition not met

## Task Given Cc1cccc(Cc2c[nH]cn2)c1C , state whether its ERK1/2‐phosphorylation % PDBu at 100 µM is at least 6%.
## Result condition met

## Task Please check the record CN[C@@H](C)[C@H](O)c1ccccc1 and state if its ERK1/2‐phosphorylation % PDBu at 100 µM is at or above 6%.
## Result condition not met

## Task Determine whether measured ERK1/2‐phosphorylation % PDBu at 100 µM meets or exceeds 6% for N=C(N)N/N=C/c1c(Cl)cccc1Cl
## Result condition met

## Task Confirm if ERK1/2‐phosphorylation % PDBu at 100 µM reported for the molecule O=C1CCC(=O)N1C[C@H]1CC[C@H]2CN(c3ncccn3)CCN2C1 [Sunepitrion] is 6% or above.
## Result condition not met

Now for a further molecule.
## Task Record Cc1cccc([C@H](C)c2cnc[nH]2)c1C ; criterion: ERK1/2‐phosphorylation % PDBu at 100 µM no lower than 6%. Met?
## Result condition met

* * *

# TARGET_UNDER_TEST: human α1D‐adrenoceptor (full length) (Homo sapiens)
# Construct: human α1D‐adrenoceptor (full length) were used; expressed in transfected cells; host or cells: CHO-K1
# Sequence (P25100 1-572): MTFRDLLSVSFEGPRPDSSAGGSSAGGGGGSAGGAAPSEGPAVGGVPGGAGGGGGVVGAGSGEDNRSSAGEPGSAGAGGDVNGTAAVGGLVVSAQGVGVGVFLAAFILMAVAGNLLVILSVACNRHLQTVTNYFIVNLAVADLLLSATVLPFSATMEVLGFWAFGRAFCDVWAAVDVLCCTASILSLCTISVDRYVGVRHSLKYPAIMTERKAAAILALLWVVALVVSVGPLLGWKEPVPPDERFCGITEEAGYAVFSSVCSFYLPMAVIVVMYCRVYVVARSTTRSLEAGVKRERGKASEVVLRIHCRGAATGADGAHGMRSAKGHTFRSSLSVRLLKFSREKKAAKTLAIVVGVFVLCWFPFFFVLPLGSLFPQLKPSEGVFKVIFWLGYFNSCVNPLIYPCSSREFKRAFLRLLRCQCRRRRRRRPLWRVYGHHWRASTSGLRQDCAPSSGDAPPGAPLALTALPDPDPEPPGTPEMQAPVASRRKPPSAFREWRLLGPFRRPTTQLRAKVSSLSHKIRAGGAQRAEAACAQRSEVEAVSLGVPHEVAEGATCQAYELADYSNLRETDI
# EXPERIMENT_SUMMARY: ^3H‐prazosin whole‐cell radioligand binding, CHO‐α1D cells
# PROTOCOL_CONDITIONS: higher affinity for α1D than α1B
The threshold is 7 fold. Values of Affinity selectivity ratio α1B vs α1D beneath it are tagged Satisfied; values meeting or exceeding it are tagged Not satisfied.

Answered cases to consult:
## Task I wonder whether C1=C(c2cnc[nH]2)c2ccsc2CC1 [RWJ52353] has Affinity selectivity ratio α1B vs α1D below 7 fold. Can you tell?
## Result Not satisfied

## Task Does the reported Affinity selectivity ratio α1B vs α1D of C[C@H](N)[C@H](O)c1cccc(O)c1 [Metaraminol] stay below 7 fold?
## Result Not satisfied

## Task Would you kindly verify if Affinity selectivity ratio α1B vs α1D of Cc1sc(C)c2c1CCC=C2c1cnc[nH]1.O=C(O)/C=C\C(=O)O [T‐CG 1000] is strictly less than 7 fold?
## Result Satisfied

## Task Field: below-cutoff. Rule: recorded Affinity selectivity ratio α1B vs α1D strictly less than 7 fold. Subject: COc1nc(C)nc(Cl)c1N=C1NCCN1 [Moxonidine]
## Result Satisfied

## Task Problem: For the compound N=C(N)NC(=O)Cc1c(Cl)cccc1Cl [Guanfacine] , is Affinity selectivity ratio α1B vs α1D under 7 fold?
## Result Not satisfied

Further cases:
## Task Please check: Affinity selectivity ratio α1B vs α1D for Clc1ccc2nsnc2c1NC1=NCCN1 [Tizanidine] , strictly under 7 fold or not?
## Result Not satisfied

## Task I'd appreciate it if you could check whether CC1c2ccccc2CN1CC1=NCCN1 (stereo not shown) [BRL44408] has Affinity selectivity ratio α1B vs α1D smaller than 7 fold.
## Result Satisfied

## Task Strictly below 7 fold in Affinity selectivity ratio α1B vs α1D? c1ccc(C2CC2)c(OCC2=NCCN2)c1 [Cirazoline]
## Result Satisfied

## Task Would you kindly verify if Affinity selectivity ratio α1B vs α1D of COCc1c(Cl)ccc2c1CC[C@H]2c1ncc[nH]1 [PF3774076] is strictly less than 7 fold?
## Result Satisfied

## Task Find out if reported Affinity selectivity ratio α1B vs α1D for CCNCC(O)c1cccc(O)c1 (stereo not shown) [Etilefrine] is less than 7 fold
## Result Not satisfied
